So I've got a bunch of compounds here, and I need their IC50 values.
tested on: Endothelial cells (HUVEC); test: Neovessels formation inhibition (capillary tube formation on Matrigel); assay type: cell-based; conditions: Homo sapiens; HUVEC on Matrigel, compounds overnight; read-out: Neovessels Formation Inhibition Total Tubule Length IC50
Structures can show the parent of a compound that is named as a salt.
Numbers only, in nM.

In the examples that follow, each entry is paired with its recorded IC50.
[
  {
    "Compound": "COc1ccc(/C=C\\c2cc(OC)c(OC)c(OC)c2)cc1NC(=O)[C@@H](N)CO [AVE8062, reference compound]",
    "System name": "Endothelial cells (HUVEC)",
    "IC50 [nM]": 15.4
  },
  {
    "Compound": "CCCOc1c(OC)cc(Cc2cncc3c(N)c(OCC)ccc23)cc1OC [Compound 64, dihydrochloride]",
    "System name": "Endothelial cells (HUVEC)",
    "IC50 [nM]": 9.54
  },
  {
    "Compound": "CCOc1ccc2c(C(=O)c3cc(OC)c(OC)c(OC)c3)cncc2c1OC(C)=O",
    "System name": "Endothelial cells (HUVEC)",
    "IC50 [nM]": 8.1
  }
]

Moving on to the next compound.
Query CCOc1ccc2c(C(=O)c3cc(OC)c(OC)c(OC)c3)cncc2c1 [Compound 40, hydrochloride] yields IC50 of 12.9
